Values compiled from ChEMBL document CHEMBL4118097.

- study-system: Serine/threonine-protein kinase PAK 4 (Homo sapiens, UniProt O96013)
- Sequence (O96013 whole entry, the tested form may be a part): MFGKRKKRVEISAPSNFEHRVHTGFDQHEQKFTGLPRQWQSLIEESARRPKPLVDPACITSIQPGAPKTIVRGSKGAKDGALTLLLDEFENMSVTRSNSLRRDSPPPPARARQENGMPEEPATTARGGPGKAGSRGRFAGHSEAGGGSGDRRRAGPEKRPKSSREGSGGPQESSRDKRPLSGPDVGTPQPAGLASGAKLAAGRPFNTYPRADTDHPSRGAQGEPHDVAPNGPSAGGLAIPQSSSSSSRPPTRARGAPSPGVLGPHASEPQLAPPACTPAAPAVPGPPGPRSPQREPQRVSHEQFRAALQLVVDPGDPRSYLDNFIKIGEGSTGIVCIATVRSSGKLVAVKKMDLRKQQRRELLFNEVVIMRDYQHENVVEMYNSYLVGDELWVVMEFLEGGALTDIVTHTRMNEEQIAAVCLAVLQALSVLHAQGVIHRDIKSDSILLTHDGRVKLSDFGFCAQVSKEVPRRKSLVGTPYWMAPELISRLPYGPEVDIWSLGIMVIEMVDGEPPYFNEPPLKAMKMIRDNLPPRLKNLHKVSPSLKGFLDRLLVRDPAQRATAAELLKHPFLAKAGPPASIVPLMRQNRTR
- assay-details: Inhibition of recombinant GST-tagged human PAK4 catalytic domain expressed in baculovirus expression system by FRET assay
quantity-name: pIC50
pIC50 (log units): -log10 of the concentration in mol/L.

Request: What value of measured pIC50 is listed for CC(C)n1nc(-c2cnc(N)c(OC(F)(F)F)c2)cc1[C@H]1[C@@H]2CN(C3COC3)C[C@@H]21 ?
Response: 6.17

* * *

Recorded pKi, one value per entry.
- study-system: Mitogen-activated protein kinase kinase kinase 12 (Homo sapiens)
- Sequence (Q12852 whole entry, the tested form may be a part): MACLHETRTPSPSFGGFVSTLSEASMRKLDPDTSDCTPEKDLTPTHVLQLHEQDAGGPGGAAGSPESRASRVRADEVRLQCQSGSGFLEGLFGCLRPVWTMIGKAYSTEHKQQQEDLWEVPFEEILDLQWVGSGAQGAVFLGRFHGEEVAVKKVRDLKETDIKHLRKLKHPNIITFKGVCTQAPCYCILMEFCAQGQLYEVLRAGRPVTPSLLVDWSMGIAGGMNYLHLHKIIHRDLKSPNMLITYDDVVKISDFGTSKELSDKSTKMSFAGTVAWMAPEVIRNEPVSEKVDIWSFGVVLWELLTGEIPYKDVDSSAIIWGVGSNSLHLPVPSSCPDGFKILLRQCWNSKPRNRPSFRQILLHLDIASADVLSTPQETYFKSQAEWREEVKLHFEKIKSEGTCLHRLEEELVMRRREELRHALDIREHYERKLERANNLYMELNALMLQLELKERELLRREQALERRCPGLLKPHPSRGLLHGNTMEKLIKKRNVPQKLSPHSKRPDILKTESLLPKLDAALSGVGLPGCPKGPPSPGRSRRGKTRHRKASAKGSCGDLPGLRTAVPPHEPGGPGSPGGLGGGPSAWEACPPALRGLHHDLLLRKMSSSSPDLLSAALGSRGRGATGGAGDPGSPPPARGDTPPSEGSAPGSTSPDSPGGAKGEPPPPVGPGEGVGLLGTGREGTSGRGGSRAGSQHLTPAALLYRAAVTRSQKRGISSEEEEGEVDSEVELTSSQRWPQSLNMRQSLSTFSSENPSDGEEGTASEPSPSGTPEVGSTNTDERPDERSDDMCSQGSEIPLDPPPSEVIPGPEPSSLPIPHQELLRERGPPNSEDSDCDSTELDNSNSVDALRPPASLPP
- assay-details: Binding affinity to N-terminally GST-tagged wild type human DLK (1 to 520 residues) expressed in sf21 insect cells using N-terminally His-tagged MKK4 K131M as substrate after 60 mins in presence of ATP by TR-FRET assay
pKi (log units): -log10 of the concentration in mol/L.

Cn1nc(-c2cnc(N)c(OC(F)(F)F)c2)cc1[C@H]1[C@@H]2CN(C3COC3)C[C@@H]21 :: 7.17
Nc1ncc(-c2cc([C@H]3[C@@H]4CN(C5COC5)C[C@@H]43)n(CC3CCCC3)n2)cc1C(F)(F)F :: 8.05

Request: Missing value: pKi, Mitogen-activated protein kinase kinase kinase 12 (Homo sapiens), entry CC(C)n1nc(-c2cnc(N)c(OC(F)(F)F)c2)cc1[C@H]1[C@@H]2CN(C3COC3)C[C@@H]21 . Fill in?
Response: 8.52

Request: Missing value: pKi, Mitogen-activated protein kinase kinase kinase 12 (Homo sapiens), entry CC(C)n1nc(-c2cnc(N)c(C(F)(F)F)c2)cc1[C@H]1[C@@H]2CN(CC3COC3)C[C@@H]21 . Fill in?
Response: 8.30

Request: Missing value: pKi, Mitogen-activated protein kinase kinase kinase 12 (Homo sapiens), entry CC(O)CN1C[C@@H]2[C@H](C1)[C@H]2c1cc(-c2cnc(N)c(C(F)(F)F)c2)nn1C(C)C (some centres not stated) . Fill in?
Response: 8.40

Request: Missing value: pKi, Mitogen-activated protein kinase kinase kinase 12 (Homo sapiens), entry CC(C)Cn1nc(-c2cnc(N)c(C(F)(F)F)c2)cc1[C@H]1[C@@H]2CN(C3COC3)C[C@@H]21 . Fill in?
Response: 8.52

Request: Missing value: pKi, Mitogen-activated protein kinase kinase kinase 12 (Homo sapiens), entry COc1cc(-c2cc([C@H]3[C@@H]4CN(C5COC5)C[C@@H]43)n(C(C)C)n2)cnc1N . Fill in?
Response: 8.15

Request: Missing value: pKi, Mitogen-activated protein kinase kinase kinase 12 (Homo sapiens), entry Cc1c[nH]c2ncc(-c3cc(C4CCN(C5COC5)CC4)n(C(C)C)n3)cc12 . Fill in?
Response: 8.40

Request: Missing value: pKi, Mitogen-activated protein kinase kinase kinase 12 (Homo sapiens), entry COCCN1C[C@@H]2[C@H](C1)[C@H]2c1cc(-c2cnc(N)c(C(F)(F)F)c2)nn1C(C)C . Fill in?
Response: 8.05

Request: Missing value: pKi, Mitogen-activated protein kinase kinase kinase 12 (Homo sapiens), entry CC(=O)N1C[C@@H]2[C@H](C1)[C@H]2c1cc(-c2cnc(N)c(C(F)(F)F)c2)nn1C(C)C . Fill in?
Response: 8.22
